system: zebrafish larvae; test: Light/Dark Stress Response (5 min alternating pulses of dark and light for 30 min); type: in vivo; design: key: +: statistically significant increase; −−: statistically significant decrease; details: High
METRIC_NAME: Light/Dark Stress Response

COc1cc(/C=C/C(=O)N2CCC=CC2=O)cc(OC)c1OC	−−
C=CCc1ccc(OC)cc1	+
COc1cc(/C=C/C(=O)CC(=O)/C=C/c2ccc(O)c(OC)c2)ccc1O	−−
C=C1CC/C=C(\C)CC[C@@H]2[C@@H]1CC2(C)C	−−
